testDetails: Solubility assay
Type: physicochemical
conditionsUsed: physiological saline, saline or isotonic, physiological saline; read-out: Solubility Value, Physiological saline
experimentalEndpoint: solubility (µg/mL)
Provide only the numeric value, understood in µg/mL.

Q: Look at this compound and give its reported solubility. CCOc1cc2ncc(C#N)c(Nc3ccc(OCc4ccccn4)c(Cl)c3)c2cc1NC(=O)/C=C/[C@H]1CCCN1C.O=C(O)C[C@H](O)C(=O)O
Ans: 80

Q: Queued: CCOc1cc2ncc(C#N)c(Nc3ccc(OCc4ccccn4)c(Cl)c3)c2cc1NC(=O)/C=C/[C@H]1CCCN1C.O=C(O)/C=C\C(=O)O
Ans: 190

Q: Also need CCOc1cc2ncc(C#N)c(Nc3ccc(OCc4ccccn4)c(Cl)c3)c2cc1NC(=O)/C=C/[C@H]1CCCN1C.O=C(O)CCC(=O)O , thanks.
Ans: 3320

Q: What do we get for CCOc1cc2ncc(C#N)c(Nc3ccc(OCc4ccccn4)c(Cl)c3)c2cc1NC(=O)/C=C/[C@H]1CCCN1C.Cc1ccc(S(=O)(=O)O)cc1 ?
Ans: 100

Values compiled from patent US20130338190A1.
